Give measured pKi for each item. Keep answers brief.
molecular target: mu opioid receptor (MOR) (UniProt P35372); assay: competition
Sequence (P35372 whole entry): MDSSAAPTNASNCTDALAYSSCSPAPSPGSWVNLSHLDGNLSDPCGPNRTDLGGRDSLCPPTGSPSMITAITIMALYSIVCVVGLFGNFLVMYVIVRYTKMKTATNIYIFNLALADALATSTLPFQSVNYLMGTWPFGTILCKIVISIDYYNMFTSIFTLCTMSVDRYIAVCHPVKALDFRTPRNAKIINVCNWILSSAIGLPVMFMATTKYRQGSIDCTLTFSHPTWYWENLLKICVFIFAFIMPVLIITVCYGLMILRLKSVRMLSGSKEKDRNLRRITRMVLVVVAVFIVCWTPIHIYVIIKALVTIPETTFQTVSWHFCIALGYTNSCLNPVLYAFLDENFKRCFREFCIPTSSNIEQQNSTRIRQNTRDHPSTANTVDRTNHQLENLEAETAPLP
Non-standard residues stand in square brackets, D forms with d. No end group written: not given here. *: point of attachment. NH(3,5-(CF3)2-benzyl) = FC(F)(F)c1cc(CN*)cc(C(F)(F)F)c1; NMeF = CN[C@@H](Cc1ccccc1)C(=O)O; 4‑Apac = not defined here; Ahx = NCCCCCC(=O)O
Numbers only, as −log10 of the molar value.

# binder, value-measured
records = [
    ("Y[dA]G[NMeF][Ahx]PLW-{NH(3,5-(CF3)2-benzyl)} [AKG124]", 8.15),
]

State the recorded pKi for every item in the following list.
1. Y[dA]G[NMeF]GPLW-{NH(3,5-(CF3)2-benzyl)} [AKG113]
2. Y[dA]G[NMeF][4‑Apac]PLW-{NH(3,5-(CF3)2-benzyl)} (reading uncertain) [AKG177]
3. YAGFXPLW (D-Ala2, NMePhe4, Nle5; C-terminal NH-Bn(3',5'-(CF3)2)) [AKG112]

[8.52, 9.00, 7.89]
